target: Bb (Homo sapiens); construct: active fragments C2a, Bb; assay: Inactivation rate of complement fragment Bb; assay type: biochemical; conditions: Table II; pH 7.5, 25° C; [I] 0.05 to 1.25 mM; read-out: kobs/[I]
Sequence (P00751 260-764 limits assumed): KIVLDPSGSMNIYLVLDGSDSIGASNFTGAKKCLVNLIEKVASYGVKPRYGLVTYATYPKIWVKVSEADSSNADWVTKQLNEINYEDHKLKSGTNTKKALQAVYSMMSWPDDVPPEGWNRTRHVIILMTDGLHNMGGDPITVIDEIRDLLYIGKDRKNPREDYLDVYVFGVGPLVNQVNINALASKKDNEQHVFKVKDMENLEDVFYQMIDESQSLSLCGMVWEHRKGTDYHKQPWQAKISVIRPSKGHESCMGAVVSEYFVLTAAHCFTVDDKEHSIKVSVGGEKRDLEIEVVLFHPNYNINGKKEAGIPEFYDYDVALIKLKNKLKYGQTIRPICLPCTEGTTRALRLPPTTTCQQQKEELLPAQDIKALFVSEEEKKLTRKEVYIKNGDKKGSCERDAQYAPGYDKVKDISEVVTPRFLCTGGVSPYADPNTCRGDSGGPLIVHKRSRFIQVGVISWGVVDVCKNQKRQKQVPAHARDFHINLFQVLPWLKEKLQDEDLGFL
Would you kindly list kinact/KI for each of these molecules?
Numbers only; they are read as M⁻¹ s⁻¹.

Req: Tell me the measured kinact/KI of CCOc1oc(=O)c2cc(NC(=N)N)ccc2c1Cl , please.
Resp: 95

Req: Tell me the measured kinact/KI of N=C(N)Nc1ccc2c(Cl)c(OCCc3ccccc3)oc(=O)c2c1 , please.
Resp: 58

Req: Tell me the measured kinact/KI of COc1oc(=O)c2cc(NC(=N)N)ccc2c1Cl , please.
Resp: 74

Req: Tell me the measured kinact/KI of N=C(N)SCCCOc1oc(=O)c2ccccc2c1Cl , please.
Resp: 0.8

Req: Tell me the measured kinact/KI of N=C(N)SCCOc1oc(=O)c2ccccc2c1Cl , please.
Resp: 15

###

molecular target: human factor XIIa (Homo sapiens); construct: human factor XIIa; test: Inactivation rate of human factor XIIa; type: biochemical; conditions: Table VIII; pH 7.5, 25° C; [I] 3.6-4.9 μM; read-out: kobs/[I]
Sequence (P00748 373-615 limits assumed): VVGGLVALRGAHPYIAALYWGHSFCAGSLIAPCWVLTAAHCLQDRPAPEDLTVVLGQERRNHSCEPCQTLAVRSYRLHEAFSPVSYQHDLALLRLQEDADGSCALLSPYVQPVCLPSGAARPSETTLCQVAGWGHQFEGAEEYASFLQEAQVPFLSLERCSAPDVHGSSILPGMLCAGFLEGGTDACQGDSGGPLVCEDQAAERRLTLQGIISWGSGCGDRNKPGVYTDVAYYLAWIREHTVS
Sequence (P00748 20-372 partner limits assumed): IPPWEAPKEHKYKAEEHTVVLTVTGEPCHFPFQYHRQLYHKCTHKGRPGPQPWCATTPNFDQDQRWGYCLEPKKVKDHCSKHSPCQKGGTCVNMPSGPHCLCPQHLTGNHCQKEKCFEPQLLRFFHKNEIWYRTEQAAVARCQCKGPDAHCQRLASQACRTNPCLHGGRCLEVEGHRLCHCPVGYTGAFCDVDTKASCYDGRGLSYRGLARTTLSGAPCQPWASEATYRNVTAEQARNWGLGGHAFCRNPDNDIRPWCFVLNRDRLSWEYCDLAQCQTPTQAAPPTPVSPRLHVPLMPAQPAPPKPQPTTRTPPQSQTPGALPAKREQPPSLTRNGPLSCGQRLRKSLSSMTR
Would you kindly list kinact/KI for each of these molecules?
Numbers only; they are read as M⁻¹ s⁻¹.

Req: Tell me the measured kinact/KI of N=C(N)SCCCOc1oc(=O)c2cc(NC(=O)Nc3ccccc3)ccc2c1Cl , please.
Resp: 7720

Req: Tell me the measured kinact/KI of N=C(N)SCCOc1oc(=O)c2cc(NC(=O)[C@@H](N)Cc3ccccc3)ccc2c1Cl , please.
Resp: 107000

Req: Tell me the measured kinact/KI of N=C(N)SCCOc1oc(=O)c2cc(NC(=O)Nc3ccccc3)ccc2c1Cl , please.
Resp: 50000

Req: Tell me the measured kinact/KI of N=C(N)SCCOc1oc(=O)c2cc(NC(=O)NCc3ccccc3)ccc2c1Cl , please.
Resp: 45000

Req: Tell me the measured kinact/KI of N=C(N)SCCOc1oc(=O)c2cc(NC(=O)Cc3ccccc3)ccc2c1Cl , please.
Resp: 59000

Req: Tell me the measured kinact/KI of N=C(N)SCCOc1oc(=O)c2cc(NC(=O)[C@H](N)Cc3ccccc3)ccc2c1Cl , please.
Resp: 82000

###

Would you kindly list kinact/KI for each of these compounds?
biological target: cathepsin G (Homo sapiens, UniProt P08311); construct: from tissue; host or cells: human leukocytes; experiment: Inactivation of cathepsin G; type: biochemical; settings: Table XVI; pH 7.5, 25° C; [I] 35-710 μM; read-out: kobs/[I]
Sequence (P08311 21-255): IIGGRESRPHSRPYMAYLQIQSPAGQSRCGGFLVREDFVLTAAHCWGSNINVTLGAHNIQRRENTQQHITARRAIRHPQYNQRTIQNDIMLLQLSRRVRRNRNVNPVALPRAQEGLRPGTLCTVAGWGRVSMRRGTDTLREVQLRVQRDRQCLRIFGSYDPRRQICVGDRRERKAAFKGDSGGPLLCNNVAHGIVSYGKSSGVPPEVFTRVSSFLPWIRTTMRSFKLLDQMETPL
Numbers only; they are read as M⁻¹ s⁻¹.

Req: Report kinact/KI for O=c1oc(OCCBr)c(Cl)c2ccc(NC(=S)Nc3ccccc3)cc12 tested on cathepsin G (Homo sapiens, UniProt P08311).
Resp: 200

Req: Report kinact/KI for CC(C)NC(=O)Nc1ccc2c(Cl)c(OCCBr)oc(=O)c2c1 tested on cathepsin G (Homo sapiens, UniProt P08311).
Resp: 77

Req: Report kinact/KI for CC(CBr)Oc1oc(=O)c2cc(N)ccc2c1Cl (stereo not shown) tested on cathepsin G (Homo sapiens, UniProt P08311).
Resp: 150

Req: Report kinact/KI for C[C@H](NC(=O)OC(C)(C)C)C(=O)N[C@@H](C)C(=O)Nc1ccc2c(Cl)c(OCCBr)oc(=O)c2c1 tested on cathepsin G (Homo sapiens, UniProt P08311).
Resp: 46

Req: Report kinact/KI for Nc1ccc2c(Cl)c(OCCBr)oc(=O)c2c1 tested on cathepsin G (Homo sapiens, UniProt P08311).
Resp: 410

Req: Report kinact/KI for O=C(O)c1cccc(NC(=S)Nc2ccc3c(Cl)c(OCCBr)oc(=O)c3c2)c1 tested on cathepsin G (Homo sapiens, UniProt P08311).
Resp: 320

Req: Report kinact/KI for CCCOc1oc(=O)c2cc(N)ccc2c1Cl tested on cathepsin G (Homo sapiens, UniProt P08311).
Resp: 61

Req: Report kinact/KI for CC(CBr)Oc1oc(=O)c2cc([N+](=O)[O-])ccc2c1Cl (stereo not shown) tested on cathepsin G (Homo sapiens, UniProt P08311).
Resp: 1660

Req: Report kinact/KI for CC(C)(C)CC(=O)Nc1ccc2c(Cl)c(OCCBr)oc(=O)c2c1 tested on cathepsin G (Homo sapiens, UniProt P08311).
Resp: 240

Req: Report kinact/KI for Nc1ccc2c(Cl)c(OCCCBr)oc(=O)c2c1 tested on cathepsin G (Homo sapiens, UniProt P08311).
Resp: 210
